Ref: ChEMBL document CHEMBL3885861

Species: Rattus norvegicus
Experiment: Open TG-GATES - Regimen: Daily Repeat
Assay type: toxicity, organism-based, Sprague-Dawley
Design: regimen Daily Repeat, gender Male, age 6 weeks
Conditions: in vivo, po, 0 mg/kg, […], tissue Blood, route gavage, dose level Control, time 14 day
reportedEndpoint: MCV (fL)
Record the value in fL, omitting the unit from your answer.

Examples with answers:
OCCN1CCN(CCCN2c3ccccc3Sc3ccc(C(F)(F)F)cc32)CC1 :: 61.1
C[C@H]1C(=O)O[C@@H]2CCN3CC=C(COC(=O)[C@](C)(O)[C@]1(C)O)[C@H]23 :: 58.1
Cn1cc[nH]c1=S :: 58.7
O=[N+]([O-])c1ccc(O)c([N+](=O)[O-])c1 :: 61.7

Next item in the queue.
Which MCV reading was recorded for the compound C=C(C)[C@H]1Cc2c(ccc3c2O[C@@H]2COc4cc(OC)c(OC)cc4[C@@H]2C3=O)O1 ? 61.8
